Target: T1, CD123 (protein in solution in the Octet affinity assay) (human, UniProt P26951 19-305, limits assumed)
T1 construct: also called IL-3Rα; Interleukine-3 Receptor alpha
T1 sequence (looked up): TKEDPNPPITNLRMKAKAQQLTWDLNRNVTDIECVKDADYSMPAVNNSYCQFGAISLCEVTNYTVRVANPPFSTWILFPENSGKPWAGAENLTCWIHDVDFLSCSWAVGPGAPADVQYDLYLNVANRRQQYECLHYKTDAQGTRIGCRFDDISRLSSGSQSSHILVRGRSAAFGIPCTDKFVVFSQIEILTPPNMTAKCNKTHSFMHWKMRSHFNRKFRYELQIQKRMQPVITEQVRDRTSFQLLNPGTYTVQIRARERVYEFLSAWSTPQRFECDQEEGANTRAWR
Test: BLI (Octet), antibody on streptavidin biosensor, CD123 6.25 nM

[
  {
    "binder": "11A12C6 (antibody, V domains shown, Mouse hybridoma monoclonal antibody; also called AB5) VH: QVQLKESGPGLVAPSQSLSITCTVSGFSLTSYDINWIRQTPGKGLEWLGVIWTGGGTNYNSAFMSRLSISRDNSKSQVFLKMNSLQTDDTAIYYCVRGDGYYWYFDVWGAGTTVTVSS VL: IVMTQSPSSLAVSAGEKVTMSCKSSQSLFSSSARKNYLAWYQQRPGQSPKLLIYWASTRESGVPDRFTGSGSGTDFTLTIGSVQAEDLAVYYCKQSYSLFTFGSGTKLEIKR",
    "Response": 0.281
  },
  {
    "binder": "18B4D5 (antibody, V domains shown, Mouse hybridoma monoclonal antibody; The tie uses 'at least 85% identity' wording; also called AB1; antiCD123 B4D5) VH: EVKLQESGPGLVKPSQSLSLTCTVTGYSITSDYTWNWIRQFPGNKLEWMGYISFSGSTSYNPSLKSRLSITRDTSKNQFFLQLNSVTTEDTATYYCARGLDYWGQGTTLTVSS VL: DIVMTQSPAIMSASLGERVTMTCTASSSISSSYLYWYQQKPGSSPKLWIYSTSNLASGVPARFSGSGSGTSYSLTISSMEAEDAATYYCHQLHRSPWTFGGGTKLEIKR",
    "Response": 0.12
  },
  {
    "binder": "17F7B2 (antibody, V domains shown, Mouse hybridoma monoclonal antibody; also called AB2) VH: EVQLQQSGTVLARPGASVKMSCKASGYSFTSYWMHWVKQRPGQGLEWIGAFYPGKSDTTYNQKFKGKAKLTAVTSASTAYMELSSLTNEDSAVYYCTKGYRYDWFAYWGQGTLVTVSA VL: DVVMTQTPLSLPVSLGDQASISCRSSQSLVHSNGITYLHWYLQKPGQSPKLLIYKVSNRFSGVPDRFSGSGSGTDFTLKISRVEAEDLGVYFCSQNTHVPFTFGSGTKLEIKR",
    "Response": 0.149
  }
]

All values here come from patent US20220348668A1.
